Test system: SNB-19 CNS
assay remarks: NCI tumour cell line growth inhibition, 48 h

{"columns": ["compound", "TGI"],
 "data": [
  ["Oc1ccc(Cl)cc1CN1CCN(Cc2cc(Cl)ccc2O)C1", "12.2 µM"],
  ["O=S1Nc2c(Cl)cc(Cl)c3c(Cl)cc(Cl)c(c23)N1", "> 100 µM"],
  ["Cc1c(C(=O)/C=C/c2ccccc2O)c(=O)n(-c2ccccc2)n1C", "> 100 µM"],
  ["C[N+]1(CCCl)CC[N+](C)(CCCl)CC1 (stereo not drawn)", "> 100 µM"],
  ["O=[N+]([O-])c1cc2c(cc1/C=N/n1c(CO)nc3ccccc31)OCO2", "> 100 µM"],
  ["O=C1OC(=O)c2cc(S(=O)(=O)c3ccc4c(c3)C(=O)OC4=O)ccc21", "> 100 µM"],
  ["CCCC(CCC)C(=O)OCC1(CO)C/C(=C\\c2ccc(F)cc2)C(=O)O1 (stereo not drawn)", "32.2 µM"],
  ["NC(=O)c1cccc(Nc2nccc(Nc3cccc4[nH]ncc34)n2)c1", "> 25 µM"],
  ["O=C(/C=C/c1ccccc1)n1c(-c2ccc(Cl)cc2)nc2ccccc21", "12.8 µM"],
  ["NNC(=O)c1nnn(CCc2ccccc2)c1C(=O)NN", "> 100 µM"],
  ["COc1cc(-c2nc(-c3nc4ccccc4[nH]3)cc3c2[nH]c2ccccc23)cc(OC)c1OC", "> 100 µM"],
  ["CCOC(=O)C(Cc1cccn1C(=O)OC(C)(C)C)[N+](=O)[O-] (stereo not drawn)", "75.5 µM"],
  ["O=C1CC(c2cccc(Br)c2)n2cccc21 (stereo not drawn)", "> 100 µM"],
  ["Cc1ccc(S(=O)(=O)NNC(=O)c2cc(C)c(C)cc2N)cc1", "> 100 µM"],
  ["Cc1cc(S(=O)(=O)Nc2nc(N)nc(N(C)C)n2)c(SCC(=O)O)cc1Cl", "> 10 µM"],
  ["CCCCON1C[C@H](OC(C)=O)C(OC(C)=O)[C@H](OC(C)=O)C1 (stereo partly drawn)", "> 100 µM"],
  ["C=C(OC1C(C)=C2C(C1OC(=O)CCCCCCC)C(C)(OC(C)=O)CC(OC(=O)CCC)C1(O)C2OC(=O)C1(C)O)/C(C)=C/C (stereo not drawn)", "3.16 µM"],
  ["Cc1ccc(C)c(C2NC(=O)c3ccccc3N2)c1 (stereo not drawn)", "> 49.5 µM"],
  ["N#CC1=C(N)NC(N2CCOCC2)=NC12Nc1ccccc1N2", "> 100 µM"],
  ["CCc1cccc(CC)c1NC(=O)C1=C(C)NC(C)=C(C(=O)Nc2c(CC)cccc2CC)C1c1ccc([N+](=O)[O-])cc1", "> 100 µM"],
  ["O=c1c(=O)c2c(Br)sc(Br)c2c1=O", "> 100 µM"],
  ["CCCN(CCCC(NC(C)=O)C(=O)NCc1ccccc1)C(=O)NCCCl (stereo not drawn)", "> 100 µM"],
  ["O=c1[nH]c2cc(Cl)ccc2nc1/C(=N\\O)C(O)c1ccc([N+](=O)[O-])cc1 (stereo not drawn)", "> 100 µM"]
]}

These entries and their values trace back to PubChem BioAssay (NCI).
